Where do the numbers come from? From patent US7981904B2.

biological target: Human ACC1 (Homo sapiens, UniProt Q13085); construct: made in house; host or cells: SF-9 insect cells (baculovirus, pFAST-BacHTc); experiment: in vitro enzymatic ACC activity assay (malachite green, absorbance at 620 nm), ACC1; format: biochemical; conditions: recombinant His-tagged human ACC1, 8 μg/mL; 60 min preincubation, 20 min reaction at 30° C.
experimental-endpoint: IC50

CCNC(=O)Nc1sc2ccccc2c1C(=O)N1CCC2(CC1)N=C(Cn1cc(C(C)(C)C)nn1)NC2=O [Compound 36]: 1 to 10 µM

State the recorded IC50 for every item in the following list.
1. CCNC(=O)Nc1sc2ccccc2c1C(=O)N1CCC2(CC1)N=C(Cn1cc(CN)nn1)NC2=O [Compound 34]
2. CCNC(=O)Nc1sc2ccccc2c1C(=O)N1CCC(N)(C#N)CC1 [Compound 6]
3. CCCCC1=NC2(CCN(C(=O)c3c(NC(=O)NCC)sc4c(OC)cccc34)CC2)C(=O)N1 [Compound 17]

Reply text:
["> 10 µM", "> 10 µM", "< 1 µM"]

---

Hi there, I'd appreciate the recorded IC50 for every entry that follows.
molecular target: Human ACC2 (Homo sapiens); construct: made in house; host or cells: SF-9 insect cells (baculovirus, pFAST-BacHTa); test: in vitro enzymatic ACC activity assay (malachite green, absorbance at 620 nm), ACC2; format: biochemical; settings: recombinant His-tagged human ACC2, 6.4 μg/mL; same method as ACC1
Sequence (O00763 117-2458 limits assumed): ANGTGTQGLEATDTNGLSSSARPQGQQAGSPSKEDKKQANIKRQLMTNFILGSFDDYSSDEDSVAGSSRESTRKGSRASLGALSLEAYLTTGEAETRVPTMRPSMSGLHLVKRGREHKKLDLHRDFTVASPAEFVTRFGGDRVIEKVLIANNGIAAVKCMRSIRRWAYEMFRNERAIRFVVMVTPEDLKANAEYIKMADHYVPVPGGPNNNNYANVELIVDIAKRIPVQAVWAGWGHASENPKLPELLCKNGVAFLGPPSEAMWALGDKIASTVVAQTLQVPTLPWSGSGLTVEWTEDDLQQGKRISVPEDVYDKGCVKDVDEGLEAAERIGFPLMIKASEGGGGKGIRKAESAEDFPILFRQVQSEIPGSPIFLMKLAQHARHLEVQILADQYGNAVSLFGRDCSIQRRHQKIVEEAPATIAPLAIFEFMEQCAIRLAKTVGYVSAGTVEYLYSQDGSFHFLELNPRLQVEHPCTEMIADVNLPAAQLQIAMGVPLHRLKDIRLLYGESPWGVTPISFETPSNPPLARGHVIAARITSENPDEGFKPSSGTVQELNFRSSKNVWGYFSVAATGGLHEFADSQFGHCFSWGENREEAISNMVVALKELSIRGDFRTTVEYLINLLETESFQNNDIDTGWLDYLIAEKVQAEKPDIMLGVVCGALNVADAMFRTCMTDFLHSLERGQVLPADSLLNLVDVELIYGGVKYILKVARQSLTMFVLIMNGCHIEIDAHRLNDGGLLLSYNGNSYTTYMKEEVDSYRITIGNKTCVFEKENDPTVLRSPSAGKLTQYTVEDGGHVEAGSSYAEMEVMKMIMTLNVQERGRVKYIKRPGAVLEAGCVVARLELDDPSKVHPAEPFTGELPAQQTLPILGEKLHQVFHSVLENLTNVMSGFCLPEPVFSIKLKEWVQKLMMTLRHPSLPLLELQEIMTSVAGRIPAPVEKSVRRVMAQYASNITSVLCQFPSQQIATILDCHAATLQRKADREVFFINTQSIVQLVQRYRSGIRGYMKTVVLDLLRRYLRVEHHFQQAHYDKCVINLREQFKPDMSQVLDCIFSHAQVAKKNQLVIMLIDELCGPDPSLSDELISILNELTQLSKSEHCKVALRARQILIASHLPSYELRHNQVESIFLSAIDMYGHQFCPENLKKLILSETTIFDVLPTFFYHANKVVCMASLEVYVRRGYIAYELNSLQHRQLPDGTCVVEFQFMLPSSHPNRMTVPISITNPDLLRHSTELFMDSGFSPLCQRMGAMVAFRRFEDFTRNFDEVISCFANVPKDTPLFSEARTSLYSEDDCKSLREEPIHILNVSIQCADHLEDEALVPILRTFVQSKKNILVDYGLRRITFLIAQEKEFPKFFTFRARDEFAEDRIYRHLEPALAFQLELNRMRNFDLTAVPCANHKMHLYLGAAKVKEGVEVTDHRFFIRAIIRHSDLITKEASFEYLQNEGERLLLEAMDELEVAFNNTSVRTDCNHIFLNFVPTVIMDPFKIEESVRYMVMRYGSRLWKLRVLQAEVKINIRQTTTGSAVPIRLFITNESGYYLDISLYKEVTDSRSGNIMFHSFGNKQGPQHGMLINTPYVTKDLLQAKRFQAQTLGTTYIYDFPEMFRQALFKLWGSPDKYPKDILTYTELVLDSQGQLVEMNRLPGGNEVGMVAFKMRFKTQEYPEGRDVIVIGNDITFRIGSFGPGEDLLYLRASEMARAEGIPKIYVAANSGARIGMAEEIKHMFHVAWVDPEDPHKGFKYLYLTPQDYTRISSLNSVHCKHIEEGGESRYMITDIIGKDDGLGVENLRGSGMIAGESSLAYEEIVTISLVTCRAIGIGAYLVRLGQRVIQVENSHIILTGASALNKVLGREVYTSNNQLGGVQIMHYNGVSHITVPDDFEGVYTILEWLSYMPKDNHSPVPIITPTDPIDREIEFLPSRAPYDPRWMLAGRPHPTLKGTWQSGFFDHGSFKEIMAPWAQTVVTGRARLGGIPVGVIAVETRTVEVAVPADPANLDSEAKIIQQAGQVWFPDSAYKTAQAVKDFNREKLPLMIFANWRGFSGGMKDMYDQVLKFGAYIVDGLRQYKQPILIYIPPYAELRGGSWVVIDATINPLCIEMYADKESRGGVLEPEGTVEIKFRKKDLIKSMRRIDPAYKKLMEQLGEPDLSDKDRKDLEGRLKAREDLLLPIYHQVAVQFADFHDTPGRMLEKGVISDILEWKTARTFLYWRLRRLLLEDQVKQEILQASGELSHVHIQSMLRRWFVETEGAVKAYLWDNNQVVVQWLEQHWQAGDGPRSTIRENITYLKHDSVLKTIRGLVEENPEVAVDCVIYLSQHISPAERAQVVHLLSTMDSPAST

# count of solved cases: 3
CCNC(=O)Nc1sc2ccccc2c1C(=O)N1CCC2(CC1)N=C(CCC(=O)OCC)NC2=O: 1 to 10 µM
CCNC(=O)Nc1sc2ccccc2c1C(=O)N1CCC2(CC1)N=C(CS(=O)(=O)C(C)C)NC2=O: < 1 µM
CCNC(=O)Nc1sc2ccccc2c1C(=O)N1CCC2(CC1)N=C(COCC(C)C)NC2=O: < 1 µM

For record "CCNC(=O)Nc1sc2ccccc2c1C(=O)N1CCC2(CC1)N=C(CCl)NC2=O" the listed IC50 is 1 to 10 µM

---

target: Human ACC1 (Homo sapiens); construct: made in house; host or cells: SF-9 insect cells (baculovirus, pFAST-BacHTc); test: in vitro enzymatic ACC activity assay (malachite green, absorbance at 620 nm), ACC1; assay type: biochemical; details: recombinant His-tagged human ACC1, 8 μg/mL; 60 min preincubation, 20 min reaction at 30° C.
experimental-endpoint: IC50

CCNC(=O)Nc1sc2ccccc2c1C(=O)N1CCC2(CC1)N=C(CSc1ccc(F)cc1)NC2=O: 1 to 10 µM
CCNC(=O)Nc1sc2ccccc2c1C(=O)N1CCC2(CC1)N=C(COC(C)C)NC2=O: 1 to 10 µM
CCNC(=O)Nc1sc2ccccc2c1C(=O)N1CCC2(CC1)N=CNC2=O: > 10 µM
CCNC(=O)Nc1sc2ccccc2c1C(=O)N1CCC2(CC1)N=C(Cn1ccccc1=O)NC2=O: > 10 µM
CCNC(=O)Nc1sc2ccccc2c1C(=O)N1CCC2(CC1)N=C(C[S+]([O-])C(C)C)NC2=O (centres unmarked): > 10 µM
CCNC(=O)Nc1sc2ccccc2c1C(=O)N1CCC(N)(C(N)=O)CC1: > 10 µM
CCNC(=O)Nc1sc2c(OC)cccc2c1C(=O)N1CCC2(CC1)N=C(CCl)NC2=O: 1 to 10 µM

Next:
For record "CCNC(=O)Nc1sc2c(OC)cccc2c1C(=O)N1CCC2(CC1)N=C(COC1CCCCC1)NC2=O" the listed IC50 is < 1 µM
